Entry source: ChEMBL document CHEMBL4138225

- Test system: Setaria cervi
- Protocol: Antifilarial activity against Setaria cervi adult after 24 hrs by MTT assay
- Type: functional, organism-based
Measured quantity: Activity

> print(dat)
                       structure                 result
1  S=C(SSc1cccc2ccccc12)N1CCCCC1  Dose-dependent effect
2        S=C(SSc1ncccn1)N1CCOCC1  Dose-dependent effect
3        S=C(SSc1ncccn1)N1CCCCC1  Dose-dependent effect
4    COc1ccc(SSC(=S)N2CCCCC2)cc1  Dose-dependent effect
5     Cc1ccc(SSC(=S)N2CCCCC2)cc1  Dose-dependent effect
